Entries annotated with measured Plant response rating, Giant foxtail
Tested on: giant foxtail
Assay: Test B pre/postemergence giant foxtail
Type: in vivo, Setaria faberii
Conditions: Preemergence, Rate 125 g/ha; scale of 0 to 10 where 0 is no effect and 10 is complete control
Experimental: […] At the same time, these crop and weed species were also treated with postemergence applications of test chemicals formulated in the same manner. […] Treated plants and controls were maintained in a greenhouse for twelve to sixteen days, after which all species were compared to controls and visually evaluated. […]
Could you keep your reply to the number by itself?

// query Please report Plant response rating, Giant foxtail with giant foxtail for item `CC(C)N(C(=O)n1oc(=O)n(CC#N)c1=O)c1ccc(F)cc1F` .
// result 0

// query Please report Plant response rating, Giant foxtail with giant foxtail for item CC(C)N(C(=O)n1oc(=O)n(C(C)C2=NOCC2)c1=O)c1ccc(F)cc1F (racemic) .
// result 10

// query Please report Plant response rating, Giant foxtail with giant foxtail for item COC(CCl)n1c(=O)on(C(=O)N(c2ccccc2)C(C)C)c1=O (stereo not shown) .
// result 10

// query Please report Plant response rating, Giant foxtail with giant foxtail for item Cc1nc(C)c(C(C)n2c(=O)on(C(=O)N(c3ccc(F)cc3F)C(C)C)c2=O)s1 (stereo not shown) .
// result 4
